assay: Displacement of [3H]-2-BFI from I2 receptor imidazoline binding site in Sprague-Dawley rat brain membranes after 30 mins by liquid scintillation counting
Assay type: cell membranes, Membrane
pKi by entry:
Please state the value as a number alone, without comment.

Prompt: Indicate its recorded pKi; the compound in question is "Clc1ccccc1/C=C/C1=NCCN1"
Completion: 8.79

Prompt: # return recorded pKi for input "Clc1ccccc1NCC1=NCCN1"
Completion: 7.9

----------
target_of_assay: Alpha-2C adrenergic receptor (Homo sapiens, UniProt P18825)
Sequence (P18825 whole entry): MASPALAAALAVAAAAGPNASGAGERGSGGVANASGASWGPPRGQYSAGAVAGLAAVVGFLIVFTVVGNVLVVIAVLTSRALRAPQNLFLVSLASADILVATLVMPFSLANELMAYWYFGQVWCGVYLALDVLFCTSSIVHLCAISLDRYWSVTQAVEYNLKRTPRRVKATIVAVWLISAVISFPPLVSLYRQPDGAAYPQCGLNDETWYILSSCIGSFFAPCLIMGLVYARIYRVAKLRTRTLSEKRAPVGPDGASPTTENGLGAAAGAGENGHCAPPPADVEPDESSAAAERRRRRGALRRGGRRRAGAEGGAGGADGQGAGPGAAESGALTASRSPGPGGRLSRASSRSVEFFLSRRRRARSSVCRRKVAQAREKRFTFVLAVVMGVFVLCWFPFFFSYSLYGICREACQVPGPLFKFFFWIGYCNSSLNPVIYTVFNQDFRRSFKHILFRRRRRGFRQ
assay: Agonist activity at human alpha2c-AR expressed in CHO cells assessed as rate of acidification after 240 mins by cytosensor microphysiometric analysis
quantity_name: pEC50
The value called pEC50 is obtained by taking minus log10 of the concentration in mol/L.

smiles_string | target_of_assay | pEC50
CCCc1ccccc1NCC1=NCCN1 | Alpha-2C adrenergic receptor (Homo sapiens, UniProt P18825) | 6.94
Clc1ccccc1NCC1=NCCN1 | Alpha-2C adrenergic receptor (Homo sapiens, UniProt P18825) | 6.65
c1ccc(-c2ccccc2NCC2=NCCN2)cc1 | Alpha-2C adrenergic receptor (Homo sapiens, UniProt P18825) | 6.83
C=CCc1ccccc1NCC1=NCCN1 | Alpha-2C adrenergic receptor (Homo sapiens, UniProt P18825) | 6.80

In the following, a different compound is considered.
Prompt: Specify pEC50 for "Cc1ccccc1NCC1=NCCN1" and stop.
Completion: 7.66
